FYI, the data here is from BindingDB's records for doi:10.1016/S1074-5521(02)00281-8.

Examples of molecules with documented pKi follow.
- system.under.test: Dolichyl-diphosphooligosaccharide--protein glycosyltransferase subunit 1 (Saccharomyces cerevisiae, UniProt P41543)
- Sequence (P41543 whole entry): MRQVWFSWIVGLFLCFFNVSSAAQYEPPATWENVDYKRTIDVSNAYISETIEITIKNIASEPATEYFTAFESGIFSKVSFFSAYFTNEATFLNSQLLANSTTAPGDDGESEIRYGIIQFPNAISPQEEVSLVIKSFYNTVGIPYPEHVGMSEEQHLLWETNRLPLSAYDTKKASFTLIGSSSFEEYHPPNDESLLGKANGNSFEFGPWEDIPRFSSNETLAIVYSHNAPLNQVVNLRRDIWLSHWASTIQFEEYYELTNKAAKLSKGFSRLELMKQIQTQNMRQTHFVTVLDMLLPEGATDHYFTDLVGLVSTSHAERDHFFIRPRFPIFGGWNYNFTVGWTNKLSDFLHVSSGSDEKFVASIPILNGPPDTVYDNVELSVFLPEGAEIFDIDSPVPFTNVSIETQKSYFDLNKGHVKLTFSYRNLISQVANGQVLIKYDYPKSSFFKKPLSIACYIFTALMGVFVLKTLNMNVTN
- assay.procedure: Competition Assay
- measurement.setup: pH 7.5; 0 °C
Starred links: 1 amine or outer side, 2 acyl side, 3 side chain; linkers in the order of their positions; H or OH if unused. Positions of bridges follow the written chain, without caps; N, C: chain ends. Non-standard residues stand in square brackets, D forms with d. Residues, ends and D or L forms follow the SMILES beside them. Chains are numbered I, II in the order given. Actinocin(9to1) = Cc1c2oc3c(C)ccc(C(=O)[*:1])c3nc-2c(C(=O)[*:2])c(N)c1=O; NMeV = CN[C@H](C(=O)O)C(C)C; Sar = CNCC(=O)O
pKi is a log-scale quantity: -log10 of the concentration expressed in molar.

Solved entries:
molecule="CC(=O)Nc1ccc(NC(=O)c2ccc(Cl)nc2)cc1 [Glycopeptide, 2]" observed_value=5.60
molecule=COc1ccc(-n2cnnc2SCC(=O)Nc2cc(C)on2)cc1 observed_value=4.00

Next item in the queue.
Input: Check the records and state pKi for Cc1c2oc3c(C)ccc(C(=O)N[C@@H]4C(=O)N[C@H](C(C)C)C(=O)N5CCC[C@H]5C(=O)N(C)CC(=O)N(C)[C@@H](C(C)C)C(=O)O[C@@H]4C)c3nc-2c(C(=O)N[C@@H]2C(=O)N[C@H](C(C)C)C(=O)N3CCC[C@H]3C(=O)N(C)CC(=O)N(C)[C@@H](C(C)C)C(=O)O[C@@H]2C)c(N)c1=O (I: T[dV]P[Sar][NMeV] / II: T[dV]P[Sar][NMeV]; ester I:1-I:C, II:1-II:C; linker I:N-II:N via Actinocin(9to1))
Output: 7.39
